- ASSAY SYSTEM: FGFR2(h) (Homo sapiens)
- Construct: purchased Eurofins (KinaseProfiler service)
- METHOD SUMMARY: Eurofins KinaseProfiler off-target kinase inhibition
- Type: biochemical
ASSAY METRIC: IC50

Briefly, IC50 measured for `c1cn2c(n1)c(Nc1ccc(N3CCOCC3)cc1)nc1ccc(-c3cn[nH]c3)cc12` : > 10000 nM

----------
- ASSAY SYSTEM: Flt1(h) (Homo sapiens)
- Construct: purchased Eurofins (KinaseProfiler platform)
- Sequence (P17948 27-1338): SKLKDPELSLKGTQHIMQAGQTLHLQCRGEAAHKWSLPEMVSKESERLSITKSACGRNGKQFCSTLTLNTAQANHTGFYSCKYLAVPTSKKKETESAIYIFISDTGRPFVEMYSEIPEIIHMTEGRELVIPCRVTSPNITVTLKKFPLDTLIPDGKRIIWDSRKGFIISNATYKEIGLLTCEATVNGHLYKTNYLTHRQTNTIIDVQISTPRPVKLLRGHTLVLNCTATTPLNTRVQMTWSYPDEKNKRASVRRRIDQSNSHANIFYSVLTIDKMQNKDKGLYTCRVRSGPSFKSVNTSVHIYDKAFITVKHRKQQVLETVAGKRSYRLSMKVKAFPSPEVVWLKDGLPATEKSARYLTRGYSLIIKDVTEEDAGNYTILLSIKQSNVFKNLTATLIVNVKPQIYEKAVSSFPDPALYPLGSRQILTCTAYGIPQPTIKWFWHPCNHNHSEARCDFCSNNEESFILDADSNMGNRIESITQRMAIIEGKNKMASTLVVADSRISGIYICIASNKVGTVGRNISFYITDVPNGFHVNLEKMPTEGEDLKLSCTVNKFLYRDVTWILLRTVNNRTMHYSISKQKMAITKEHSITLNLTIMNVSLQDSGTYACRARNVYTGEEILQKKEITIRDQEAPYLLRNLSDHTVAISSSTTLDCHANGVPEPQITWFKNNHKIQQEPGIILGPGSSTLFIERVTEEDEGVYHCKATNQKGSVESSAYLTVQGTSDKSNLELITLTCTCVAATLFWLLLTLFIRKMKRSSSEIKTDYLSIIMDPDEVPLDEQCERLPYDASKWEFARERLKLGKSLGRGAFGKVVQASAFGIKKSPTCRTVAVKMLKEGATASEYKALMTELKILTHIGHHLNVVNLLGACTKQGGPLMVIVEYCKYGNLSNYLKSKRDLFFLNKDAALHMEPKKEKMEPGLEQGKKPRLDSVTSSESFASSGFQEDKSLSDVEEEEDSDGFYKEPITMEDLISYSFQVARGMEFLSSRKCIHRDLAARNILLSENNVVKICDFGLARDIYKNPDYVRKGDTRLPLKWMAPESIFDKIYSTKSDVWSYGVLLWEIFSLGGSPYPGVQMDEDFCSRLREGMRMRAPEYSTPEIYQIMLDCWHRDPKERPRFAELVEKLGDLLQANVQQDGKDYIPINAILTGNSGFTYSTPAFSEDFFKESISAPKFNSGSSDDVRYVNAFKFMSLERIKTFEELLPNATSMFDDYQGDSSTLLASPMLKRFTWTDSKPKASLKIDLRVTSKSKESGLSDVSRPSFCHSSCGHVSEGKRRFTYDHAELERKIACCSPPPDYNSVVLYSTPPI
- METHOD SUMMARY: Eurofins KinaseProfiler off-target kinase inhibition
- Type: biochemical
ASSAY METRIC: IC50 (nM)
Give the number; nM is assumed, so skip it.

Briefly, IC50 measured for c1cn2c(n1)c(Nc1ccc(N3CCOCC3)cc1)nc1ccc(-c3cn[nH]c3)cc12 [Compound 1] : 104

----------
- ASSAY SYSTEM: CSK(h) (Homo sapiens)
- Construct: purchased Eurofins (KinaseProfiler platform)
- Sequence (P41240 whole entry): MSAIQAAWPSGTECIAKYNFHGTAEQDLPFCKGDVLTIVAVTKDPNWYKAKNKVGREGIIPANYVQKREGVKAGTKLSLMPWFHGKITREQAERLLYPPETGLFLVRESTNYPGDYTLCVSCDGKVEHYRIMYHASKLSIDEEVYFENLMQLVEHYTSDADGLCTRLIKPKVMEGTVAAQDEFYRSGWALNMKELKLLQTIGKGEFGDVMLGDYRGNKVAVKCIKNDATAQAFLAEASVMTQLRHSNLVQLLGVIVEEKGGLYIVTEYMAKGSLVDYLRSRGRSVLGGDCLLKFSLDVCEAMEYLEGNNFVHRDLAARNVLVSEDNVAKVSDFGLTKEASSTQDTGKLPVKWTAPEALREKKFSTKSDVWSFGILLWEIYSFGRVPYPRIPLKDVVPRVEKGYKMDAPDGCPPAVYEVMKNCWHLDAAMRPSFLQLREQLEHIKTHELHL
- METHOD SUMMARY: Eurofins KinaseProfiler off-target kinase inhibition
- Type: biochemical
ASSAY METRIC: IC50

Query c1cn2c(n1)c(Nc1ccc(N3CCOCC3)cc1)nc1ccc(-c3cn[nH]c3)cc12 [Compound 1] on CSK(h) (Homo sapiens); IC50 returned: > 10000 nM

----------
- ASSAY SYSTEM: cSRC(h) (Homo sapiens, UniProt P12931)
- Construct: purchased Eurofins (KinaseProfiler platform)
- Sequence (P12931 whole entry): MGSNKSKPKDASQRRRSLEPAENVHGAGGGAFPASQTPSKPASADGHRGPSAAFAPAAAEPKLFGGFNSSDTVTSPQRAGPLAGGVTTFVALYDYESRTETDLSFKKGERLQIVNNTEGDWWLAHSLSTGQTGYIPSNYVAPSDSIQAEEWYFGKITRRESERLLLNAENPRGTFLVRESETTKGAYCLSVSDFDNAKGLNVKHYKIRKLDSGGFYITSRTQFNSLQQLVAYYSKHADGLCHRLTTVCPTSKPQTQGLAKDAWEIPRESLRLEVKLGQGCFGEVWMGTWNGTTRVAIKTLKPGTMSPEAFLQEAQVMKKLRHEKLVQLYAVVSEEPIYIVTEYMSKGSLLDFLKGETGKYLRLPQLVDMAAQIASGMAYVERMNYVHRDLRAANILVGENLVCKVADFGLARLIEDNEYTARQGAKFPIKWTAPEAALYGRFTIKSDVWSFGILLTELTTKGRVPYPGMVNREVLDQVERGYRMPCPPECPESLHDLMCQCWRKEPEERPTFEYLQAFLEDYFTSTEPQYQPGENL
- METHOD SUMMARY: Eurofins KinaseProfiler off-target kinase inhibition
- Format: biochemical
ASSAY METRIC: IC50 (nM)
Give the number; nM is assumed, so skip it.

Briefly, IC50 measured for c1cn2c(n1)c(Nc1ccc(N3CCOCC3)cc1)nc1ccc(-c3cn[nH]c3)cc12 [Compound 1] : 367

----------
- ASSAY SYSTEM: JAK3(h) (Homo sapiens)
- Construct: purchased Eurofins (KinaseProfiler service)
- Sequence (P52333 whole entry): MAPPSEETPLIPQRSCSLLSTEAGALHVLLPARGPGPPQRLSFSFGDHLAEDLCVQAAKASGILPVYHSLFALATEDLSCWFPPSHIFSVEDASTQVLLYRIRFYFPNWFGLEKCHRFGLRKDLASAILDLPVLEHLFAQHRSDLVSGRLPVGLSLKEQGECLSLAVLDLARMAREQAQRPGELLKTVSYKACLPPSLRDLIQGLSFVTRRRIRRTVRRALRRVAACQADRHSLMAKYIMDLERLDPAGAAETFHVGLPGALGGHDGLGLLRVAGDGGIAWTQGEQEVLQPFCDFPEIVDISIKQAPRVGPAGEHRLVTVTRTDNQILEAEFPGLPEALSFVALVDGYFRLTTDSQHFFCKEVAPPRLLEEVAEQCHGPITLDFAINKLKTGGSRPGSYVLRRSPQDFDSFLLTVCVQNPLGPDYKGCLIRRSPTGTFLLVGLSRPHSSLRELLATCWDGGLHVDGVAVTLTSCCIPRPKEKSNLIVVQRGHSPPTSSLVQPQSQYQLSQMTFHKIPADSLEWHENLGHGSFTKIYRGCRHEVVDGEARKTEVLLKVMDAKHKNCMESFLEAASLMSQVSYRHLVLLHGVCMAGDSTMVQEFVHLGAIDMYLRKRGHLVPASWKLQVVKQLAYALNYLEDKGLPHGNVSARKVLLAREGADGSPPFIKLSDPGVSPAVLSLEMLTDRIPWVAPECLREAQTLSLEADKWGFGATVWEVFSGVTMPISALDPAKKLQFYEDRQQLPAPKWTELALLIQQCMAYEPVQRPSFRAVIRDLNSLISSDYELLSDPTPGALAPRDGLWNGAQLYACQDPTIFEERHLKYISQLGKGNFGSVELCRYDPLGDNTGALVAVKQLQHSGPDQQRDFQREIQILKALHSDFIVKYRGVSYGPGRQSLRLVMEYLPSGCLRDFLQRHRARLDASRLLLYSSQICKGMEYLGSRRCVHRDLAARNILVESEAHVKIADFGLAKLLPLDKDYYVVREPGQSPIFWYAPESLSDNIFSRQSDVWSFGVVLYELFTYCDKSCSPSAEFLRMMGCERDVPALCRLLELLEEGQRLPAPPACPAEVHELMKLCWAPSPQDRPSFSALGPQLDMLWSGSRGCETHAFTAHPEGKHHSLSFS
- METHOD SUMMARY: Eurofins KinaseProfiler off-target kinase inhibition
- Type: biochemical
ASSAY METRIC: IC50 (nM)
Give the number; nM is assumed, so skip it.

Briefly, IC50 measured for `c1cn2c(n1)c(Nc1ccc(N3CCOCC3)cc1)nc1ccc(-c3cn[nH]c3)cc12` : 550

----------
- ASSAY SYSTEM: FGFR1(h) (Homo sapiens, UniProt P11362)
- Construct: purchased Eurofins (KinaseProfiler platform)
- METHOD SUMMARY: Eurofins KinaseProfiler off-target kinase inhibition
- Assay type: biochemical
ASSAY METRIC: IC50 (nM)
Give the number; nM is assumed, so skip it.

Query `c1cn2c(n1)c(Nc1ccc(N3CCOCC3)cc1)nc1ccc(-c3cn[nH]c3)cc12` on FGFR1(h) (Homo sapiens, UniProt P11362); IC50 returned: 847

----------
- ASSAY SYSTEM: CYP3A4 (Homo sapiens)
- Construct: human liver microsome working solution was prepared; from tissue; host or cells: human liver microsomes
- Sequence (P08684 whole entry): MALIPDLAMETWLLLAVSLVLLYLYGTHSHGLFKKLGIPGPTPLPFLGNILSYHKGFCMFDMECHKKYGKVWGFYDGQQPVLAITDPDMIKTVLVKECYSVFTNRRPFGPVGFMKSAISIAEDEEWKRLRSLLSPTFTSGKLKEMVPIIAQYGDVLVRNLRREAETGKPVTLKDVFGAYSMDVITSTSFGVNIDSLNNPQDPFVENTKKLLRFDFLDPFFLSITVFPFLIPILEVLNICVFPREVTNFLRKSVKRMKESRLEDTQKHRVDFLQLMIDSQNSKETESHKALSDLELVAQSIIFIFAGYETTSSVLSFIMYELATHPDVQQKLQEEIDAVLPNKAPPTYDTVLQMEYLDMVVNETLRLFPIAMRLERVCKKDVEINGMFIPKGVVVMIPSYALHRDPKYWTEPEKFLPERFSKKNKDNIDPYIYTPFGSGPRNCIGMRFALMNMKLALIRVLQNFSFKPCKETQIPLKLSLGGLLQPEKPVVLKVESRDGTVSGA
- METHOD SUMMARY: Inhibition of cytochrome P450 enzymes in human liver microsomes (LC-MS/MS)
- Type: in vitro ADME
ASSAY METRIC: IC50

Briefly, IC50 measured for `c1cn2c(n1)c(Nc1ccc(N3CCOCC3)cc1)nc1ccc(-c3cn[nH]c3)cc12` : > 50 nM

----------
- ASSAY SYSTEM: Flt3(h) (Homo sapiens)
- Construct: purchased Eurofins (KinaseProfiler platform)
- Sequence (P36888 27-993): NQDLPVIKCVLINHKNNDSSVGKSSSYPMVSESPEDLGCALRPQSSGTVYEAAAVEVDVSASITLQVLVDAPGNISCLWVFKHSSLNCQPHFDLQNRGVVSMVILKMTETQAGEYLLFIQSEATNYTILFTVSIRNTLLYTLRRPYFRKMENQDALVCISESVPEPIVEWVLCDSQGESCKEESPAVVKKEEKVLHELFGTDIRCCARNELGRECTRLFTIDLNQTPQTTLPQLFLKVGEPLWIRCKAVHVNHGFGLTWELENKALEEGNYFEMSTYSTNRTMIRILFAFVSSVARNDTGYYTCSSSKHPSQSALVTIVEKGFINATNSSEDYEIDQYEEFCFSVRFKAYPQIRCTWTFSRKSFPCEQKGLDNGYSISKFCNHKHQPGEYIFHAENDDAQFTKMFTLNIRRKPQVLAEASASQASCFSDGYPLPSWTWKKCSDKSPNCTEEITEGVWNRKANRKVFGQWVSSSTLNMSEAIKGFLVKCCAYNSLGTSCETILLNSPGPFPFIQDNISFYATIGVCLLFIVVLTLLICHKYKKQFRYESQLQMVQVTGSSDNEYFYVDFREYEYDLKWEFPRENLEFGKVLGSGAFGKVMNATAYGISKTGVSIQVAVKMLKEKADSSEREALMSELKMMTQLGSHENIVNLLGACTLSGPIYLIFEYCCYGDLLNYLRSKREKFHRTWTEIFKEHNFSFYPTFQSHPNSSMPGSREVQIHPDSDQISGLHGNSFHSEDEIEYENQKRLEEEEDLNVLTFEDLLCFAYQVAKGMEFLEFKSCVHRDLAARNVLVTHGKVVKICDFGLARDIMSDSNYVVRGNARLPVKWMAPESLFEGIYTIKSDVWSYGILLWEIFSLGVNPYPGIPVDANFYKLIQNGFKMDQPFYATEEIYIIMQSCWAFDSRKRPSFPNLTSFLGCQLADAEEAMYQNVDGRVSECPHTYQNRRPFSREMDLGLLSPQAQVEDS
- METHOD SUMMARY: Eurofins KinaseProfiler off-target kinase inhibition
- Format: biochemical
ASSAY METRIC: IC50 (nM)
Give the number; nM is assumed, so skip it.

Briefly, IC50 measured for c1cn2c(n1)c(Nc1ccc(N3CCOCC3)cc1)nc1ccc(-c3cn[nH]c3)cc12 [Compound 1] : 12
